# test_target: T1, human MSLN-FL-his protein (human, UniProt Q13421 296-580)
# T1 construct: also called hMSLN-FL-his; human MSLN full-length protein; not shown: His tag
# T1 sequence (Q13421 other isoform, or with tags, fused parts or gaps): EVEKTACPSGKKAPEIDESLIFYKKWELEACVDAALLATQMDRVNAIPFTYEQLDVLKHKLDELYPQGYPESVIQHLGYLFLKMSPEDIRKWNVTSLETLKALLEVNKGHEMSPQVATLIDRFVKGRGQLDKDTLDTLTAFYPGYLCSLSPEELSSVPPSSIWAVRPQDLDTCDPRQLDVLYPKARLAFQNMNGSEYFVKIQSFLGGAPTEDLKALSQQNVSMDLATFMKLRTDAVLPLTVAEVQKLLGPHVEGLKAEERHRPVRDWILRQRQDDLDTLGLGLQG
# protocol_text: ELISA, coated antigen; antibody 10 nM
observation_type: OD450
Field format: numeric only.

Recorded OD450, per entry:
S009-F1.59.1 human-murine chimeric antibody (antibody, human IgG1, kappa, V domains shown, Chimeric IgG1/kappa) VH: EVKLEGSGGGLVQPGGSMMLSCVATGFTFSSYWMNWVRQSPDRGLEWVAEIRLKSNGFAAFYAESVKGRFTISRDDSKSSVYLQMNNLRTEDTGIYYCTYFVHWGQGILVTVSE VL: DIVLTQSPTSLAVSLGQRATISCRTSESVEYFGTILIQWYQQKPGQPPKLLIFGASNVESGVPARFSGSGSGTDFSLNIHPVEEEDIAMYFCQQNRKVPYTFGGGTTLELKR = 2.38
S009-F1.25.10 human-murine chimeric antibody (antibody, human IgG1, kappa, V domains shown, Chimeric IgG1/kappa) VH: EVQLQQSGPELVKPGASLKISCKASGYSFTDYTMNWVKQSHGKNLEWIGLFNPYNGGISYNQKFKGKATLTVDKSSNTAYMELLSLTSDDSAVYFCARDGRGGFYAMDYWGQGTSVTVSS VL: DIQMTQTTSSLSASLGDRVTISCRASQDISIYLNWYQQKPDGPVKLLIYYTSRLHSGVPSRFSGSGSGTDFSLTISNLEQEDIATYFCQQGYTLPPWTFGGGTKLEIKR = 2.44
S009-F1.2.12 human-murine chimeric antibody (antibody, human IgG1, kappa, V domains shown, Chimeric IgG1/kappa) VH: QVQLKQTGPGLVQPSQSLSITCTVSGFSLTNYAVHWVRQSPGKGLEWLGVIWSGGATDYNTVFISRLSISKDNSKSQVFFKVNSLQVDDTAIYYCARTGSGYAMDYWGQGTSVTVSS VL: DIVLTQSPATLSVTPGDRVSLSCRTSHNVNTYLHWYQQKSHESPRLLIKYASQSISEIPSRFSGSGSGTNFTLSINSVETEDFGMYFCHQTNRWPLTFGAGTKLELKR = 2.31
S009-F1.62.9 human-murine chimeric antibody (antibody, human IgG1, kappa, V domains shown, Chimeric IgG1/kappa) VH: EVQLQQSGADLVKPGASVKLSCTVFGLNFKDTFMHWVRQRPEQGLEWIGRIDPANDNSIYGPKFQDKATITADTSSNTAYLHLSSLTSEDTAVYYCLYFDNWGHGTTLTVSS VL: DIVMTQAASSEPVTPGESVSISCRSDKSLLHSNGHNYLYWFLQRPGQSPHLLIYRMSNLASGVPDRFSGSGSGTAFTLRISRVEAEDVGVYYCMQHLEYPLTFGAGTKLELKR = 2.59

Now for the binder whose OD450 we want.
query: // lookup OD450 for S009-F1.57.1 human-murine chimeric antibody (antibody, human IgG1, kappa, V domains shown, Chimeric IgG1/kappa) VH: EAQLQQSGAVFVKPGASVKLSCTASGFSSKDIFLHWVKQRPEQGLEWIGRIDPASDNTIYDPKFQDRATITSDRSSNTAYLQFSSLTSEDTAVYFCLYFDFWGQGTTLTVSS VL: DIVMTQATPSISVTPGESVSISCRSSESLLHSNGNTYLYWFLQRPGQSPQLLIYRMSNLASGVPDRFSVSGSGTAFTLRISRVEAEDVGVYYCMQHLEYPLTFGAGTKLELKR
result: 2.42

Source listed as patent US20250250357A1.
